System: Triticum aestivum
TEST METHOD NOTES: Stimulation of root length of Triticum aestivum (wheat) at 0.1 mM after 5 days relative to untreated control
Format: functional
READOUT: Activity

INSERT INTO measurements (compound_string, measured_target, result) VALUES
  ('C[C@@]12CCC[C@]3(C)C4=CC(=O)OCC4=C[C@@H](OC1=O)[C@@H]23', 'Triticum aestivum', '20%'),
  ('CO[C@@H]1OC(=O)C=C2C1=C[C@H]1OC(=O)[C@@]3(C)CCC[C@@]2(C)[C@@H]13', 'Triticum aestivum', '>40%');

###

Test system: Allium cepa
TEST METHOD NOTES: Stimulation of root length of Allium cepa (onion) at 0.1 mM after 5 days relative to untreated control
Format: functional
Activity calls are given as the source filed them. No cut-off for these calls is given here.
READOUT: Activity

INSERT INTO assay_data (compound_string, result) VALUES
  ('COC(=O)[C@@]1(C)CCC[C@@]2(C)[C@H]1CC[C@H]1COC(=O)C[C@@H]12', '<20%'),
  ('COC(=O)[C@@]1(C)CCC[C@]2(C)C3=CC(=O)O[C@H](C(C)C)C3=CC[C@@H]12', '20%'),
  ('C[C@@]12CCC[C@]3(C)C4=CC(=O)OCC4=C[C@@H](OC1=O)[C@@H]23', '>40%'),
  ('COc1nc(C)nc(NC(=O)NS(=O)(=O)c2ccccc2OCCCl)n1', '>40%'),
  ('COC(=O)[C@@]1(C)CCC[C@@]2(C)[C@H]1CC=C1COC(=O)C[C@@H]12', 'inactive'),
  ('COC(=O)[C@@]1(C)CCC[C@]2(C)c3cc(=O)occ3CC[C@@H]12', 'inactive'),
  ('CO[C@H]1OC(=O)C=C2C1=C[C@H]1OC(=O)[C@@]3(C)CCC[C@@]2(C)[C@@H]13', '>40%');

###

Test system: Lactuca sativa
TEST METHOD NOTES: Stimulation of root length of Lactuca sativa cv. Nigra (lettuce) at 0.1 mM after 5 days relative to untreated control
Type: functional
Activity calls are given as the source filed them. The calls are words filed in the database; no cut-off is given here.
READOUT: Activity

INSERT INTO results (compound_string, measured_target, readout, result) VALUES
  ('COC(=O)[C@@]1(C)CCC[C@]2(C)C3=CC(=O)OCC3=CC[C@@H]12', 'Lactuca sativa', 'Activity', '<20%'),
  ('CO[C@@H]1OC(=O)C=C2C1=C[C@H]1OC(=O)[C@@]3(C)CCC[C@@]2(C)[C@@H]13', 'Lactuca sativa', 'Activity', '>40%'),
  ('C[C@]1(C(=O)O)CCC[C@]2(C)C3=CC(=O)OC[C@]34O[C@@H]4C[C@@H]12', 'Lactuca sativa', 'Activity', '<20%'),
  ('COC(=O)[C@@]1(C)CCC[C@@]2(C)[C@H]1CC=C1COC(=O)C[C@@H]12', 'Lactuca sativa', 'Activity', '<20%'),
  ('COC(=O)[C@@]1(C)CCC[C@]2(C)c3cc(=O)occ3CC[C@@H]12', 'Lactuca sativa', 'Activity', 'inactive'),
  ('COC(=O)[C@@]1(C)CCC[C@@]2(C)[C@H]1CC[C@H]1COC(=O)C[C@@H]12', 'Lactuca sativa', 'Activity', '<20%'),
  ('C[C@@]12CCC[C@]3(C)C4=CC(=O)OCC4=C[C@@H](OC1=O)[C@@H]23', 'Lactuca sativa', 'Activity', '>40%'),
  ('COC(=O)[C@@]1(C)CCC[C@]2(C)C3=CC(=O)O[C@H](C(C)C)C3=CC[C@@H]12', 'Lactuca sativa', 'Activity', 'inactive'),
  ('COC(=O)[C@@]1(C)CCC[C@]2(C)C3=C(CC[C@@H]12)COC(=O)C3', 'Lactuca sativa', 'Activity', 'inactive');

###

System: Allium cepa
TEST METHOD NOTES: Inhibition of root length of Allium cepa (onion) at 0.1 mM after 5 days relative to untreated control
Format: functional
EXPERIMENTAL CONDITIONS: 120 h
# maps each entry to its inhibition at 100 µM
READOUT: inhibition at 100 µM

INSERT INTO measurements (compound_string, result) VALUES
  ('COC(=O)[C@@]1(C)CCC[C@@]2(C)[C@H]1CC[C@H]1COC(=O)C[C@@H]12', '< 20%'),
  ('COC(=O)[C@@]1(C)CCC[C@]2(C)C3=CC(=O)OC[C@]34O[C@@H]4C[C@@H]12', '< 20%'),
  ('COC(=O)[C@@]1(C)CCC[C@]2(C)C3=CC(=O)O[C@H](C(C)C)C3=CC[C@@H]12', '20%'),
  ('COC(=O)[C@@]1(C)CCC[C@]2(C)C3=CC(=O)OCC3=CC[C@@H]12', '20%'),
  ('CO[C@@H]1OC(=O)C=C2C1=C[C@H]1OC(=O)[C@@]3(C)CCC[C@@]2(C)[C@@H]13', '> 40%'),
  ('CO[C@H]1OC(=O)C=C2C1=C[C@H]1OC(=O)[C@@]3(C)CCC[C@@]2(C)[C@@H]13', '> 40%'),
  ('C[C@@]12CCC[C@]3(C)C4=CC(=O)OCC4=C[C@@H](OC1=O)[C@@H]23', '> 40%'),
  ('COc1nc(C)nc(NC(=O)NS(=O)(=O)c2ccccc2OCCCl)n1', '> 40%');

###

Tested on: Triticum aestivum
TEST METHOD NOTES: Stimulation of root length of Triticum aestivum (wheat) at 0.1 mM after 5 days relative to untreated control
Format: functional
Calls of active or inactive are those of the source. No cut-off for these calls is given here.
READOUT: Activity

INSERT INTO assay_data (compound_string, readout, result) VALUES
  ('C[C@]1(C(=O)O)CCC[C@]2(C)C3=CC(=O)OC[C@]34O[C@@H]4C[C@@H]12', 'Activity', 'inactive'),
  ('COC(=O)[C@@]1(C)CCC[C@]2(C)C3=C(CC[C@@H]12)COC(=O)C3', 'Activity', 'inactive'),
  ('COC(=O)[C@@]1(C)CCC[C@]2(C)c3cc(=O)occ3CC[C@@H]12', 'Activity', '<20%'),
  ('COC(=O)[C@@]1(C)CCC[C@@]2(C)[C@H]1CC[C@H]1COC(=O)C[C@@H]12', 'Activity', '<20%'),
  ('COc1nc(C)nc(NC(=O)NS(=O)(=O)c2ccccc2OCCCl)n1', 'Activity', '20%'),
  ('COC(=O)[C@@]1(C)CCC[C@]2(C)C3=CC(=O)OC[C@]34O[C@@H]4C[C@@H]12', 'Activity', '20%'),
  ('COC(=O)[C@@]1(C)CCC[C@]2(C)C3=CC(=O)O[C@H](C(C)C)C3=CC[C@@H]12', 'Activity', '<20%'),
  ('COC(=O)[C@@]1(C)CCC[C@@]2(C)[C@H]1CC=C1COC(=O)C[C@@H]12', 'Activity', 'inactive'),
  ('CO[C@H]1OC(=O)C=C2C1=C[C@H]1OC(=O)[C@@]3(C)CCC[C@@]2(C)[C@@H]13', 'Activity', '>40%');

###

Tested on: Solanum lycopersicum
TEST METHOD NOTES: Stimulation of shoot length of Solanum lycopersicum (tomato) at 0.1 mM after 5 days relative to untreated control
Type: functional
READOUT: Activity

INSERT INTO measurements (molecule, result) VALUES
  ('COC(=O)[C@@]1(C)CCC[C@]2(C)c3cc(=O)occ3CC[C@@H]12', '<20%'),
  ('CO[C@@H]1OC(=O)C=C2C1=C[C@H]1OC(=O)[C@@]3(C)CCC[C@@]2(C)[C@@H]13', '>40%'),
  ('COC(=O)[C@@]1(C)CCC[C@@]2(C)[C@H]1CC=C1COC(=O)C[C@@H]12', '20%'),
  ('COC(=O)[C@@]1(C)CCC[C@]2(C)C3=C(CC[C@@H]12)COC(=O)C3', '<20%'),
  ('COC(=O)[C@@]1(C)CCC[C@@]2(C)[C@H]1CC[C@H]1COC(=O)C[C@@H]12', '20%'),
  ('C[C@@]12CCC[C@]3(C)C4=CC(=O)OCC4=C[C@@H](OC1=O)[C@@H]23', '>40%'),
  ('C[C@]1(C(=O)O)CCC[C@]2(C)C3=CC(=O)OC[C@]34O[C@@H]4C[C@@H]12', '<20%'),
  ('CO[C@H]1OC(=O)C=C2C1=C[C@H]1OC(=O)[C@@]3(C)CCC[C@@]2(C)[C@@H]13', '>40%'),
  ('COC(=O)[C@@]1(C)CCC[C@]2(C)C3=CC(=O)OC[C@]34O[C@@H]4C[C@@H]12', '20%'),
  ('COC(=O)[C@@]1(C)CCC[C@]2(C)C3=CC(=O)O[C@H](C(C)C)C3=CC[C@@H]12', '<20%'),
  ('COc1nc(C)nc(NC(=O)NS(=O)(=O)c2ccccc2OCCCl)n1 [LOGRAN]', '>40%');
